From: ChEMBL document CHEMBL1139902

# protocol notes: Tmax in Wistar rat at 10 mg/kg. po
# Assay type: ADME, organism-based
# Design: dose 10 mg/kg, route oral
# measurement context: in vivo
measured quantity: Tmax (h)
// return numeric value only (unit: h, not printed)

Example entries begin here.
| entry smiles | Tmax [h] |
| --- | --- |
| C[C@@H](CN1CCc2cc(F)ccc21)NC(=O)[C@@H](CC(=O)N1CCOCC1)CC1CCCCC1 | 0.42 |
| COc1ccc([C@H](CC(=O)N2CCOCC2)C(=O)N[C@H](CNc2ccc(OC(F)(F)F)cc2)C(C)C)cc1 | 1 |

Fill in: Tmax of C[C@@H](CNc1ccc(OC(F)(F)F)cc1)NC(=O)[C@@H](CC(=O)N1CCOCC1)CC1CCCC1 is ___
1

Fill in: Tmax of CC(C)[C@@H](CNc1ccc(OC(F)(F)F)cc1)NC(=O)[C@@H](CC(=O)N1CCOCC1)c1ccc(Cl)cc1 is ___
2

###

# protocol notes: Half life in Wistar rat at 10 mg/kg. po
# Type: ADME, organism-based
# Parameters: dose 10 mg/kg, route oral
# measurement context: in vivo
measured quantity: half-life (h)
// return numeric value only (unit: h, not printed)

Fill in: half-life of COc1ccc([C@H](CC(=O)N2CCOCC2)C(=O)N[C@H](CNc2ccc(OC(F)(F)F)cc2)C(C)C)cc1 is ___
1.06

Fill in: half-life of CC(C)[C@@H](CNc1ccc(OC(F)(F)F)cc1)NC(=O)[C@@H](CC(=O)N1CCOCC1)c1ccccc1 is ___
0.92

Fill in: half-life of O=C(NCCN1CCc2cc(F)ccc21)[C@H](CC1CCCCC1)NC(=O)N1CCOCC1 is ___
1.12

###

# protocol notes: Cmax in Wistar rat at 10 mg/kg. po
# Format: ADME, organism-based
# Parameters: dose 10 mg/kg, route oral
# measurement context: in vivo
# Cmax listing for each entry below
// return numeric value only (unit: nM, not printed)

Example entries begin here.
| entry smiles | Cmax / nM |
| --- | --- |
| C[C@@H](CNc1ccc(OC(F)(F)F)cc1)NC(=O)[C@@H](CC(=O)N1CCOCC1)CC1CCCC1 | 318 |
| CC(C)[C@@H](CNc1ccc(OC(F)(F)F)cc1)NC(=O)[C@@H](CC(=O)N1CCOCC1)CC1CCCCC1 | 241 |
| C[C@@H](CNc1ccc(OC(F)(F)F)cc1)NC(=O)[C@@H](CC(=O)N1CCOCC1)CC1CCCCC1 | 983 |

Fill in: Cmax of CCC[C@@H](CNc1ccc(OC(F)(F)F)cc1)NC(=O)[C@@H](CC(=O)N1CCOCC1)CC1CCCCC1 is ___
220

###

# protocol notes: AUC in Wistar rat at 10 mg/kg, po
# Assay type: ADME, organism-based
# Set-up: dose 10 mg/kg, route oral
# measurement context: plasma
Note to self: AUC under 0.8 µM·h means T, ties and anything higher get F.

Use these answered entries as a reference point.
| entry smiles | assigned label |
| --- | --- |
| CC(C)[C@@H](CNc1ccc(OC(F)(F)F)cc1)NC(=O)[C@@H](CC(=O)N1CCOCC1)c1ccc(C(F)(F)F)cc1 | F |
| O=C(N[C@H](CNc1ccc(OC(F)(F)F)cc1)c1ccccc1)[C@@H](CC(=O)N1CCOCC1)CC1CCCCC1 | F |
| CC(C)[C@@H](CNc1ccc(OC(F)(F)F)cc1)NC(=O)[C@@H](CC(=O)N1CCOCC1)c1ccc(F)cc1 | F |

Now turn to the next compound.
Report whether reported AUC is lower than 0.8 µM·h (strictly) for COc1ccc([C@H](CC(=O)N2CCOCC2)C(=O)N[C@H](CNc2ccc(OC(F)(F)F)cc2)C(C)C)cc1
F
